tested on: HIV-1 (NL4-3 strain); assay: Assay for Inhibition of HIV Replication (kinetic assay, MT4-gag-GFP reporter cell line; VIKING); format: cell-based; conditions: MT4-GFP cells infected with HIV-1 NL4-3; 100% normal human serum (NHS); read-out: VIKING IP50 (nM) with 100% NHS
MEASURE_NAME: IC50 (nM)
Quick reminder: number only, in nM, skip the unit.

{"COMPOUND": "C[C@H]1CNC2C3CCc4c(C(=O)NCc5ccc(F)cc5F)c(=O)c(O)c(n43)C(=O)N21 (stereo partly shown) [Compound 101]", "MEASURE_NAME": "IC50", "READOUT_UNITS": "nM", "RECORDED_RESULT": 23.4}
{"COMPOUND": "CCNC1CC2C3OCCCN3C(=O)c3c(O)c(=O)c(C(=O)NCc4ccc(F)cc4F)c1n32 (stereo not shown) [Compound 207]", "MEASURE_NAME": "IC50", "READOUT_UNITS": "nM", "RECORDED_RESULT": 140}
{"COMPOUND": "C[C@H]1CN2C(=O)c3c(O)c(=O)c(C(=O)NCc4cccc(Cl)c4F)c4n3C(CC4)C2O1 (single isomer, unassigned) [Compound 43]", "MEASURE_NAME": "IC50", "READOUT_UNITS": "nM", "RECORDED_RESULT": 18.2}

Next compound, please.
Q: I am curious: what IC50 value has been reported for CCNC1CC2C3OCCCN3C(=O)c3c(O)c(=O)c(C(=O)NCc4cccc(F)c4F)c1n32 (stereo not shown) [Compound 187] ?
Result: 49.1

###

// values below are reported IC50
system: HIV-1 (NL4-3 strain); assay: Assay for Inhibition of HIV Replication (kinetic assay, MT4-gag-GFP reporter cell line; VIKING); format: cell-based; settings: MT4-GFP cells infected with HIV-1 NL4-3; 100% normal human serum (NHS); read-out: VIKING IP50 (nM) with 100% NHS
Your answer should be a plain number; it is taken to be in nM.

For orientation, consider the following solved cases.
{"MOLECULE": "O=C(NCc1cccc(F)c1F)c1c2n3c(c(O)c1=O)C(=O)N1C4CCC(C4)OC1C3CC2 (centres unmarked) [Compound 165]", "IC50 [nM]": 56.1}
{"MOLECULE": "CCNC1CC2C3OCCCN3C(=O)c3c(O)c(=O)c(C(=O)NCc4ccc(F)cc4F)c1n32 (centres unmarked) [Compound 206]", "IC50 [nM]": 51.6}

Q: // lookup IC50 for COC1CC2C3OCCN3C(=O)c3c(O)c(=O)c(C(=O)NCc4ccc(F)cc4F)c1n32 (single isomer, unassigned) [Compound 76]
Result: 17.8

Q: # IC50 lookup, item O=C(NCc1ccc(F)cc1)c1c2n3c(c(O)c1=O)C(=O)N1C4CCC(C4)OC1C3CC2 (centres unmarked) [Compound 160]
Result: 73.1

Q: Recorded IC50 for O=C(NCc1c(F)cc(F)cc1F)c1c2n3c(c(O)c1=O)C(=O)N1CCOC1C3CC2 (single isomer, unassigned) [Compound 21] , please?
Result: 158

###

tested on: HIV-1 (NL4-3 strain); assay: Assay for Inhibition of HIV Replication (kinetic assay, MT4-gag-GFP reporter cell line; VIKING); assay type: cell-based; conditions: MT4-GFP cells infected with HIV-1 NL4-3; 0% normal human serum (NHS); read-out: VIKING IP50 (nM) with 0% NHS
We label by threshold. Values of IC50 strictly beneath 3 nM are MET. Values of 3 nM and up are NOT MET.

Worked set:
{"MOLECULE": "CCNC1CC2C3OCCCN3C(=O)c3c(O)c(=O)c(C(=O)NCc4cccc(Cl)c4F)c1n32 (centres unmarked) [Compound 198]", "ASSIGNED_CLASS": "NOT MET"}
{"MOLECULE": "O=C(NCc1ccccc1F)c1c2n3c(c(O)c1=O)C(=O)N1CCOC1C3CC2 (single isomer, unassigned) [Compound 12]", "ASSIGNED_CLASS": "MET"}
{"MOLECULE": "COC1CC2C3OCCN3C(=O)c3c(O)c(=O)c(C(=O)NCc4ccc(F)cc4F)c1n32 (single isomer, unassigned) [Compound 77]", "ASSIGNED_CLASS": "MET"}

Q: A record lists CN1CCCN2C(=O)c3c(O)c(=O)c(C(=O)NCc4ccc(F)cc4F)c4n3C(CC4)C12C (centres unmarked) . Is its IC50 below 3 nM?
Result: MET

Q: Answer whether the molecule CC(=O)N1C2C3CCc4c(C(=O)NCc5cccc(Cl)c5F)c(=O)c(O)c(n43)C(=O)N2C[C@@H]1C (some centres unmarked) has IC50 strictly less than 3 nM
Result: MET

Q: Please determine if C[C@H]1CN(C)C2C3CCc4c(C(=O)NCc5cccc(Cl)c5F)c(=O)c(O)c(n43)C(=O)N21 (some centres unmarked) is below 3 nM in terms of IC50.
Result: MET

Q: # strict comparison: is reported IC50 < 3 nM? input = CCNC1CC2C3OCCCN3C(=O)c3c(O)c(=O)c(C(=O)NCc4cccc(Cl)c4F)c1n32 (centres unmarked) [Compound 197]
Result: NOT MET

Q: Strictly below 3 nM: is that where IC50 of CCCN1C2C3CCc4c(C(=O)NCc5cccc(Cl)c5F)c(=O)c(O)c(n43)C(=O)N2C[C@@H]1C (some centres unmarked) [Compound 107] sits?
Result: MET

Q: Please check: IC50 for C[C@H]1CN2C(=O)c3c(O)c(=O)c(C(=O)NCc4cccc(Cl)c4F)c4n3C(CC4)C2N1 (some centres unmarked) [Compound 92] , strictly under 3 nM or not?
Result: MET

Q: Please indicate whether the reported IC50 of O=C(NCc1ccc(F)cc1)c1c2n3c(c(O)c1=O)C(=O)N1C4CCC(C4)OC1C3CC2 (centres unmarked) [Compound 162] is strictly below 3 nM.
Result: NOT MET

Q: For O=C(NCc1ccc(F)cc1F)c1c2n3c(c(O)c1=O)C(=O)N1CCCOC1C3CC2 (single isomer, unassigned) [Compound 58] , is the recorded IC50 below the cut-off of 3 nM?
Result: MET
